biological target: alpha-synuclein fibrils, P37840; assay: SPR, captured mAb; conditions: remark: other sources report otherwise
attribute.measured: pKd
Answers are plain numbers, as −log10 of the molar value.

>>> observed("ACI-8033-1G10-Ab1 (antibody, V domains shown) VH: DVQLQESGPGLVKPSQTVFLTCTVTGISITTGNYRWSWIRQFPGNKLEWIGYIYYSGTITYNPSLTSRTTITRDTPKNQFFLEMNSLTAEDTATYYCARIYYGNAMDYWGQGTSVTVSS VL: DVVMTQTPLSLPVSLGDQASISCRSSQSLVHSNGNTYLHWYLQKPGQSPKLLIYKVSNRFSGVPDRFSGSGSGTDFTLKISRVEAEDLGVYFCSQSTHVPHTFGGGTKLEIK")
8.43

Provide pKd values for the following items, in order.
1. ACI-8033-5A12-Ab1 (antibody, V domains shown) VH: QVHLKQSGADLVRPGASVKLSCKASGYTFTDYYINWVKQRPGQGLEWIARIYPGSGNTYYNEKFKGRATLSAEKSSTTAYMQLSSLTSEDSAVYFCVVGYYGAWGQGTTLTVSS VL: DVVMTQTPLSLPVSLGDQASISCRSSQSLVHSNGKTHLHWYLQKPGQSPKLLIYKVSNRFSGVPDRFSGSGSGTDFTLKISRVEAEDLGVYFCSQSTHVPWTFGGGTKLEIK
2. ACI-8033-18C11-Ab1 (antibody, V domains shown) VH: QVQLQQPGAELVKPGASVKMSCKAAGYTFSSYWITWVRQRPGQGLDWIGDIYPGGGVTNYNEKFKTKATLTVDTSSSTAYMQLSSLTSEDSAVYYCATAQTTFAYWGQGTLVTVSA VL: DVLMTQTPLSLPVSLGDQASISCRSSQNIVHNNGNTYLEWYLQKPGQSPKLLIYKVSNRFSGVPDRFSGSGSGTDFTLKISRVEAEDLGVYYCFQGSHVPRTFGGGTKLEIK
3. ACI-7079-2603C1-Ab3 (antibody, V domains shown) VH: QVQLQQPGADLVKPGASVKLSCKASGYTFTSYWMQWTKQRPGQGLEWIGEIDPSDSYANYNQKFKGKATLTVDKYSSTAYMQLNSLTSEDSAVYYCALYDGPSYWGQGTLVTVS VL: ENVLTQSPAIMSASPGEKVTMTCSAGSSVSYMHWFQQKSSTSPKLWIYDTSKLPSGVPGRFSGSGSGNSYSLTISSMEAEDVATYYCFQGSGYPYTFGGGTKLEIK
4. ACI-7088-4305H7-Ab1 (antibody, V domains shown) VH: EVQLQQSGAELVRPGASVKLSCTASGFNIKDDYMHWVKQRPEQGLEWIGWIDPENGDTEYASKFQGKATMIADTSSNTAYLQLSSLTSEDTAVYYCKTWGTTQALFPYWGQGTLVTVSS VL: DIVMTQSQKFMSTSVGDRVSITCKASQNVGTAVGWYQQKAGQSPKLLIHSASNRYTGVPDRFTGSGSGTDFTLTINNMQSEDLADYFCQQYRSYPLTFGAGTKLELK
5. ACI-8033-4F3-Ab1 (antibody, V domains shown) VH: EVQLQQSGPELVKPGASVKISCKASGYTFTDYYMNWVKQSHGKSLEWIGDINPNTGTNSYNQKFKGRASLTVDKFSSAAYMELRSLTSEDSAVYYCARTGYGDPISSYYYALDYWGQGTSVTVSS VL: DIVMSQSPSSLAVSAGEKVTMSCKSSQSLLNSRTRKNYLAWYQQKPGQSPKLLIYWASTRESGVPDRFTGSGSGTDFTLTISSVQAEDLAVYYCKQSYNLWTFGGGTKLEIK

1. 10.00
2. 7.52
3. 7.39
4. 8.08
5. 10.30

Provide pKd values for the following items, in order.
1. ACI-8033-17F5-Ab1 (antibody, V domains shown) VH: EVQLQQSGPELVKPGASVKISCKASGYTFTDYFMNWVKQSHGKSLEWIGDINPNIDVTNYNQKFKGKATLTVDKSSSTAYMELRSLTSEDSAVYYCARGRDYAMDFWGQGTSVTVSS VL: DIVMSQSPSSLAVSAGEKVTMSCKSSQSLLNSRTRKNYLAWYQQKPGQSPKLLIYWASTRESGVPDRFTGSGSGTDFTLTISSVQAEDLAVYYCKQSYDLWTFGGGTKLEIK
2. ACI-7089-4418F6-Ab1 (antibody, V domains shown) VH: QVQLQQSGAELARPGASVKVSCKASGYTFTSSGISWLKHRTGQGLEWIGDIYPRSGNTYYNEKFKDKATLTADKSSSTAYMELRSLTSEDSAVYFCSSGNYWGQGTTLTVSS VL: DIVITQDDLSNPVTSGESVSISCRSSKSLLYKDGKTYLNWFLQRPGQSPQLLIYLMSTRASGVSDRFSGSGSGTDFTLEISRVKAEDVGVYYCQQLLEYPLTFGAGTKLELK
3. ACI-7067-1106A8-Ab2 (antibody, V domains shown) VH: EVQLVESGGGLVQPKGSLKLSCAASGFTFNTYAMHWVRQAPGKGLEWVARIRSKGSNYATNYADSVKDRFTISRDDSQSMLYLQMNNLKTEDTAMYYCVRGHGSSYFSYWGQGTLVTVSA VL: QIVLTQSPAIMSASPGEKVTMTCSASSSVSYMHWYQQKSGTSPKRWIYDTSNLASGVPARFSGSGSGTSYSLTISSMEAEDAATYYCQQWNSHPPTFGAGTKLELK
4. ACI-7088-4303A3-Ab1 (antibody, V domains shown) VH: QVQLQQSGAELVRPGASVTLSCKASGYTFTDYEMHWVKQTPVHGLEWIGVIDPETGGAVQNQKFKGKAILTADNSSSTAYMDLRSLTSEDSAVYNCAMGAALRLAYWGQGTLVTVSS VL: DVLMTQTPLSLPVSLGDQASISCRSSQSIVHSNGNSYLEWYLQKPGQSPKLLIYKVSNRFSGVPDRFSGSGSGTDFTLKINRVEAEDLGVYYCFQGSHVPFTFGSGTKLEIK

8.06
10.40
7.60
8.03
